Where these numbers come from: patent US10233186B2

Target: ALK2 R206H (GST-tagged mutant ALK2) (Homo sapiens, UniProt Q04771, R206H)
Construct: purchased Carna Bioscience or ThermoFisher 09-148 or PV6232
Experiment: ALK binding assay (LANTHASCREEN TR-FRET competitive binding, displacement of Kinase Tracer 178)
Conditions: ALK2 R206H, LANTHASCREEN TR-FRET competitive binding; read-out: Binding Assay (IC50)
Method: Binding assays were conducted using the LANTHASCREEN® technology (ThermoFisher Scientific). LANTHASCREEN® is a competitive binding, displacement assay where the assumed steady state occupancy of the binding site is measured using a time-resolved, fluorescence energy transfer (TR-FRET) readout between a fluorescent tracer and Europium (Eu)-tagged antibody specific for the kinase or expression tag (e.g. GST) of interest. […]
VALUE TYPE: IC50

- COMPOUND: "CC(C)N1CCC(c2ccc(-c3cc4c(N5CCN(C(=O)O[C@H]6CCOC6)CC5)ccnn4c3)cc2)CC1 [Compound 667]"
  IC50: "< 10 nM"
- COMPOUND: "CCOC1(c2ccc(-c3cc4c(N5CCN(C(=O)NC(C)C)CC5)ccnn4c3)nc2)CCN(C(C)C)CC1 [Compound 715]"
  IC50: "< 10 nM"
- COMPOUND: "COCCN1CCN(c2ccc(-c3cc4c(N5CCN(C(=O)C6CC6)CC5)ccnn4c3)cc2)CC1 [Compound 334]"
  IC50: "10 to 50 nM"
- COMPOUND: "COC1(c2ccc(-c3cc4c(N5CCN(C(=O)[C@H]6C[C@H](C#N)C6)CC5)ccnn4c3)nc2)CCN(C(C)C)CC1 [Compound 731]"
  IC50: "< 10 nM"
- COMPOUND: "CC(C)N1CCC(c2ccc(-c3cc4c(N5CCN(C(=O)[C@H]6CC[C@H](C#N)CC6)CC5)ccnn4c3)nc2)CC1 [Compound 437]"
  IC50: "< 10 nM"
- COMPOUND: "CC(C)N1CC=C(c2ccc(-c3cc4c(N5CCN(C(=O)C6CC6)CC5)ccnn4c3)c(F)c2)CC1 [Compound 571]"
  IC50: "< 10 nM"

// for each compound below, give its IC50
1. O=C(C1CC1)N1CCN(c2ccnn3cc(-c4cnn(C5CCNCC5)c4)cc23)CC1 [Compound 117]
2. CCN1CCC(c2ccc(-c3cc4c(N5CCN(C(=O)[C@H]6C[C@H]6F)CC5)ccnn4c3)cc2)CC1 [Compound 281]
3. CO[C@@]1(c2ccc(-c3cc4c(N5CCN(C(=O)C6CC6)CC5)ccnn4c3)cc2)CCCNC1 [Compound 490]
4. Cc1cc([C@H]2CCN(C(C)C)C2)ccc1-c1cc2c(N3CCN(C(=O)C4CC4)CC3)ccnn2c1 [Compound 256]
5. CC(C)N1CCN(c2cnc(-c3cc4c(N5CCN(C(=O)C6CC6)CC5)ccnn4c3)nc2)CC1 [Compound 528]
6. CCN1CCN(c2ccc(-c3cc4c(N5CCN(C(=O)[C@@H]6C[C@H]6F)CC5)ccnn4c3)cc2)CC1 [Compound 292]

Outgoing:
["< 10 nM", "< 10 nM", "< 10 nM", "< 10 nM", "10 to 50 nM", "< 10 nM"]

* * *

Target: human ALK2 R206H (Homo sapiens, UniProt Q04771, R206H)
Construct: expressed in transfected cells; host or cells: HEK293 (ATCC CRL1573), lentivirus transduction, blasticidin selection
Sequence (Q04771 21-509 R206H): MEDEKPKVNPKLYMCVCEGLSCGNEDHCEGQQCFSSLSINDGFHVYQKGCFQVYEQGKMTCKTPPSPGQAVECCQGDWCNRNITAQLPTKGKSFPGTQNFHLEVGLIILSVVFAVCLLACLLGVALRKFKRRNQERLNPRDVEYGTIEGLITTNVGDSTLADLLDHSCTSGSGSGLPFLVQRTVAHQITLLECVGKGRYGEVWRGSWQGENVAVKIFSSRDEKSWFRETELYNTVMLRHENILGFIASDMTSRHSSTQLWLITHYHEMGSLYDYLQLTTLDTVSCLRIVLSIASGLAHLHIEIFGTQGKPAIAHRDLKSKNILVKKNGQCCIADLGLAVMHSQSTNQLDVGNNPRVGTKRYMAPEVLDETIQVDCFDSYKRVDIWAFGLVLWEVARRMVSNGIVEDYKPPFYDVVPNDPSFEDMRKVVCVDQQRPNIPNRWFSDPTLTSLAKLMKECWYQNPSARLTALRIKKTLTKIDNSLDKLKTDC
Assay: Cell-based ALK2-R206H cell activity assay (Smad1-Ser463/Ser465 phosphorylation by AlphaLISA in HEK293-ALK2-R206H cells)
Conditions: read-out: Cell Line (Cell Assay IC50)
VALUE TYPE: IC50

Solved cases below.
- SMI: "CC(C)N1CCN(c2ccc(-c3cc4c(N5CCN(C(=O)[C@H]6C[C@H]6F)CC5)ccnn4c3)cc2)CC1"
  IC50: "< 100 nM"
- SMI: "CCNC(=O)N1CCN(c2ccnn3cc(-c4cc5c(s4)CN(C(C)C)CC5)cc23)CC1"
  IC50: "< 100 nM"
- SMI: "CO[C@]1(c2ccc(-c3cc4c(N5CCN(C(=O)NC(C)C)CC5)ccnn4c3)cc2)CCCNC1"
  IC50: "< 100 nM"

// for each compound below, give its IC50
1. CC[C@H](C)N1CCC(c2ccc(-c3cc4c(N5CCN(C(=O)C6CC6)CC5)ccnn4c3)cc2)CC1
2. O=C(C1CC1)N1CCN(c2ccnn3cc(-c4ccc(OC5CNC5)cc4)cc23)CC1
3. CC(C)N1CCC(c2ccc(-c3cc4c(N5CCN(C(=O)NCC(F)(F)F)CC5)ccnn4c3)cc2)CC1
4. O=C(C1CC1)N1CCN(c2ccnn3cc(-c4cnn(C5CCCC5)c4)cc23)CC1

Outgoing:
["< 100 nM", "100 to 500 nM", "< 100 nM", "> 500 nM"]

* * *

Kindly state IC50 for each of the entries shown.
Target: human ALK2 R206H (Homo sapiens, UniProt Q04771, R206H)
Construct: expressed in transfected cells; host or cells: HEK293 (ATCC CRL1573), lentivirus transduction, blasticidin selection
Test: Cell-based ALK2-R206H cell activity assay (Smad1-Ser463/Ser465 phosphorylation by AlphaLISA in HEK293-ALK2-R206H cells)
Details: read-out: Cell Line (Cell Assay IC50)

- MOLECULE: "CCN1CCC(c2ccc(-c3cc4c(N5CCN(C(=O)C6CC6)[C@H](C)C5)ccnn4c3)cc2)CC1"
  VALUE TYPE: "IC50"
  RECORDED VALUE: "100 to 500 nM"
- MOLECULE: "CCNC(=O)N1CCN(c2ccnn3cc(-c4ccc([C@]5(OCC)CCCN(C(C)C)C5)cc4)cc23)CC1"
  VALUE TYPE: "IC50"
  RECORDED VALUE: "< 100 nM"
- MOLECULE: "CC(C)NC(=O)N1CCN(c2ccnn3cc(-c4ccc([C@@H]5CCCN5)cn4)cc23)CC1"
  VALUE TYPE: "IC50"
  RECORDED VALUE: "< 100 nM"
- MOLECULE: "CC(C)N1CCC[C@H](c2ccc(-c3cc4c(N5CCN(C(=O)[C@H]6CC[C@H](C#N)CC6)CC5)ccnn4c3)cc2)C1"
  VALUE TYPE: "IC50"
  RECORDED VALUE: "< 100 nM"
- MOLECULE: "N#C[C@@H]1C[C@H]1C(=O)N1CCN(c2ccnn3cc(-c4ccc([C@@]5(F)CCCNC5)cc4)cc23)CC1"
  VALUE TYPE: "IC50"
  RECORDED VALUE: "< 100 nM"

// for each molecule below, give its IC50
1. CCOC(=O)N1CCN(c2ccnn3cc(-c4ccc([C@]5(C)CN(C(C)C)CCN5C)cc4)cc23)CC1
2. CC(C)N1CC[C@@H](c2ccc(-c3cc4c(N5CCN(C(=O)N6CC(C#N)C6)CC5)ccnn4c3)cc2)C1
3. CCNC(=O)N1CCN(c2ccnn3cc(-c4ccc([C@@]5(OC)CCCN(C(C)C)C5)cn4)cc23)CC1
4. CCOC(=O)N1CCN(c2ccnn3cc(-c4ccc([C@@H]5CCCN(C(C)C)C5)cc4)cc23)C[C@H]1C

Outgoing:
1. < 100 nM
2. < 100 nM
3. < 100 nM
4. 100 to 500 nM

* * *

Kindly state pIC50 for each of the entries shown.
Target: human ALK2 R206H (Homo sapiens, UniProt Q04771, R206H)
Construct: expressed in transfected cells; host or cells: HEK293 (ATCC CRL1573), lentivirus transduction, blasticidin selection
Test: Cell-based ALK2-R206H cell activity assay (Smad1-Ser463/Ser465 phosphorylation by AlphaLISA in HEK293-ALK2-R206H cells)
Conditions: read-out: Cell Line (Cell Assay IC50)
Method: A HEK293 (ATCC, Cat^# CRL1573) based stable cell line expressing human ALK2 R206H cDNA (synthesized by GeneScript, Piscataway, N.J.) and a FLAG tag at the C-terminus was generated by lentivirus transduction and subsequent blasticidin (Life Technologies, Cat^#-A1113902) selection at 10 μg/ml for >2 wks. This cell line was named HEK293-ALK2-R206H. Test compounds were first diluted to 4 mM or 0.4 mM and then serially diluted 3-fold into 10 different concentrations using DMSO. […]
pIC50: −log10 of the molar value.

// for each molecule below, give its pIC50
1. CCO[C@@]1(c2ccc(-c3cc4c(N5CCN(C(=O)NC(C)C)CC5)ccnn4c3)nc2)CCCN(C(C)C)C1
2. CC(C)NC(=O)N1CCN(c2ccnn3cc(-c4ccc([C@H]5CCCN5)cn4)cc23)CC1
3. CCNC(=O)N1CCN(c2ccnn3cc(-c4ccc(C5(O)CN(C(C)C)C5)cc4)cc23)CC1
4. CCN1CC[C@H](c2ccc(-c3cc4c(N5CCN(C(=O)[C@H]6C[C@H]6F)CC5)ccnn4c3)cc2)C1
5. CO[C@]1(c2ccc(-c3cc4c(N5CCN(C(=O)OC6COC6)CC5)ccnn4c3)cc2)CCCNC1
6. CO[C@@]1(c2ccc(-c3cc4c(N5CCN(C(=O)NC(C)C)CC5)ccnn4c3)nc2)CCCN(C(C)C)C1
7. Cc1cc(-c2cc3c(N4CCN(C(=O)C5CC5)CC4)ccnn3c2)ccc1[C@@H]1CCN(C(C)C)C1

Outgoing:
1: > 7.00; 2: 6.30 to 7.00; 3: 6.30 to 7.00; 4: > 7.00; 5: > 7.00; 6: > 7.00; 7: 6.30 to 7.00

// for each molecule below, give its pIC50
1. CCOC(=O)N1CCN(c2ccnn3cc(-c4ccc([C@@]5(OCC)CCCNC5)cn4)cc23)CC1
2. CCOC(=O)N1CCN(c2ccnn3cc(-c4ccc(C5(OCC)CCN(C(C)C)CC5)cn4)cc23)CC1
3. CO[C@]1(c2ccc(-c3cc4c(N5CCN(C(=O)C6CC6)CC5)ccnn4c3)nc2)CCCN(C(C)C)C1
4. CO[C@]1(c2ccc(-c3cc4c(N5CCN(C(=O)C6CC6)CC5)ccnn4c3)cc2)CCCNC1
5. CC(C)N1CCC[C@@]1(C)c1ccc(-c2cc3c(N4CCN(C(=O)C5CC5)CC4)ccnn3c2)cc1
6. CC(C)N1CCC(c2ccc(-c3cc4c(N5CCN(C(=O)[C@H]6C[C@](C)(O)C6)CC5)ccnn4c3)cc2)CC1
7. CC(C)N1CCC[C@@H]1c1ccc(-c2cc3c(N4CCN(C(=O)C5CC5)CC4)ccnn3c2)cc1
8. CCOC(=O)N1CCN(c2ccnn3cc(-c4ccc(C5(OC)CCN(C(C)C)CC5)cc4F)cc23)CC1

Outgoing:
> 7.00
> 7.00
> 7.00
> 7.00
> 7.00
> 7.00
> 7.00
> 7.00
